Target: T1, human IL-1α (human, UniProt P01583 113-271)
T1 sequence (looked up): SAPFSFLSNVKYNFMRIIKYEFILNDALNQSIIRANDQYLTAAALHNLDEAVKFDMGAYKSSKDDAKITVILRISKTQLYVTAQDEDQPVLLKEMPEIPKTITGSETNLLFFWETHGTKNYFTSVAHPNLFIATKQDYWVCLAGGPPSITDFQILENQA
Test: cell-based or functional assay
Criterion: ND50 strictly less than 1 nM. Met: Met. Not met: Not met.

- ABT1-95-32 (other, VK dAb) VL: DIQMTQSPSSLSASVGDRVTITCRASQPIVRNLRWYQQKPGKAPKLLIYSSSYLEPGVPSRFSGSGSGTDFTLTISSLQPEDFATYYCQQGYSWPVTFGQGTKVEIKR: Not met
- ABT1-95-171 (other) VL: DIQMTQSPSSLSASVGDRVTITCRASRPIVRNLRWYQQKPGKAPKLLIYSVSYLEPGVPSRFSGSGSGTDFTLTISSLQPEDFATYHCQQGYRWPVTFGQGTKVEIKR: Met
- ABT1-141-79 (other, VK dAb) VL: DIQMTQSPSSLSASVGDRVTITCRANQWIQKQLAWYQQKPGKAPKLLIFSSSHLQSGVPSRFSGSGSGTDFTLTISSLQPEDFATYYCQQHLRVPMTFGQGTKVEIKR: Not met
- ABT1-95-64 (other, VK dAb) VL: DIQMTQSPSSLSASVGDRVTITCRASQPIVRNLRWYQQKPGKAPKLLVHSSSYLEPGVPSRFSGSGSGTDFTLTISSLQPEDFATYHCQQGYRWPVTFGQGTKVEVKR: Met
- ABT1-95-117 (other, VK dAb) VL: DIQMTQSPSSLSASVGDRVTITCRASQPIVRNLRWYQQKPGKAPKLLIYSSSYLEPGVPSRFSGSGSGTDFTLTISSLQPEDFAMYHCVQGYRWPVTFGQGTKVEIKR: Met
- ABT1-95-30 (other, VK dAb) VL: DIQMTQSPSSLSASVGDRVTITCRASQPIVRNLRWYQQKPGKAPKLLIYSSSYLEPGVPSRFSGSGSGTDFTLTISSLQPEDFATYYCQQSYRWPVTFGQGTKVEIKR: Not met
